measured.on: T1, human plasma Kallikrein (human, UniProt P03952 20-638, limits assumed)
T1 construct: also called hPK; human PK
procedure.details: enzyme inhibition assay
pKi: −log10 of the molar value. Numbered stars: 1 amine (or outer) side, 2 acyl side, 3 side chain; on linkers, the order of the positions; unused ones are H or OH. Bridge positions count the residues as written; N and C are the ends. Square brackets hold non-standard residues; d marks the D form. TBMB = c1c(C[*:1])cc(C[*:3])cc1C[*:2]; Pip = O=C(O)[C@@H]1CCCCN1
parameter: pKi

INSERT INTO assay_data (binder, recorded_value) VALUES
  ('Ac-CSW[Pip]ARCLHQDLC-NH2 (linker 1-7-13 via TBMB; SMILES CC(=O)N[C@H]1CSCc2cc3cc(c2)CSC[C@H](NC(=O)[C@H](CCCNC(=N)N)NC(=O)[C@H](C)NC(=O)[C@@H]2CCCCN2C(=O)[C@H](Cc2c[nH]c4ccccc24)NC(=O)[C@H](CO)NC1=O)C(=O)N[C@@H](CC(C)C)C(=O)N[C@@H](Cc1c[nH]cn1)C(=O)N[C@@H](CCC(N)=O)C(=O)N[C@@H](CC(=O)O)C(=O)N[C@@H](CC(C)C)C(=O)N[C@H](C(N)=O)CSC3) [Ac-(06-34-18) Pip3]', 9.59);
